Give % binding of the fluorescently labeled mAb (IgG pre-incubation = 100) for every item shown.
Target: T1, human CD103 (integrin Alpha-E) / human integrin Beta-7 heterodimer on cells (human, UniProt P38570 19-1179; P26010 20-798)
T1 construct: the assay field tells which cells; also called hCD103/hBeta7; CHO.K1-hCD103/hBeta7
T1 sequence (P38570 19-1179 limits assumed, chain 1 of 2): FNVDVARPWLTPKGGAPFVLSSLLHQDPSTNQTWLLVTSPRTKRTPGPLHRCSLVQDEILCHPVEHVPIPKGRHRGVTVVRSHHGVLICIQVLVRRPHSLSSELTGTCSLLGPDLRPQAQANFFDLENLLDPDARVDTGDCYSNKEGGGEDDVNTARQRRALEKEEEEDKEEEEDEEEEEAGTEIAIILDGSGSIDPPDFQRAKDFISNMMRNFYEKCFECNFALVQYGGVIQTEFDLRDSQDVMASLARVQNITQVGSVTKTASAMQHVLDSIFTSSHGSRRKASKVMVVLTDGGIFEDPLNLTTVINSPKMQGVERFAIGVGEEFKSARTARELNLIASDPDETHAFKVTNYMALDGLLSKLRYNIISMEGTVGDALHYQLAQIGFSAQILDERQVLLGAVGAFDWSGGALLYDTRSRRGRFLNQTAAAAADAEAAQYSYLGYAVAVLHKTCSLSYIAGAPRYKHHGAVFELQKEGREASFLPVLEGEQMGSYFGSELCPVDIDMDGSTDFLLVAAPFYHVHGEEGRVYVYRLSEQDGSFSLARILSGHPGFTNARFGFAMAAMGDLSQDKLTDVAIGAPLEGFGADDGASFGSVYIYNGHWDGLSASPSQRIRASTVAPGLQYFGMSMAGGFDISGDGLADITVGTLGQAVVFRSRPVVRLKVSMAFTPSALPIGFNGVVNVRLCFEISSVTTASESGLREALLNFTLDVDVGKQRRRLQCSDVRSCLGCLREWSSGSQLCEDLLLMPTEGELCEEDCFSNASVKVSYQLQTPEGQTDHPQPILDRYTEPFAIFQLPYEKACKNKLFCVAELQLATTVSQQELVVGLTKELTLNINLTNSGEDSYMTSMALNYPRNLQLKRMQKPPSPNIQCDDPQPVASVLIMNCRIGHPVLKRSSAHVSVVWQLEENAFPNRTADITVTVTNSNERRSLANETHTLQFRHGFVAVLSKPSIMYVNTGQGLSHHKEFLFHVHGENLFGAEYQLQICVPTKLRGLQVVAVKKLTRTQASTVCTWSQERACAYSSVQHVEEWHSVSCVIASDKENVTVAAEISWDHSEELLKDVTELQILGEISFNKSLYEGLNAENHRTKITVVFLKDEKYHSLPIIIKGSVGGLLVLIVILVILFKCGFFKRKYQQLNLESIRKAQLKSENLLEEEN
T1 sequence (P26010 20-798 limits assumed, chain 2 of 2): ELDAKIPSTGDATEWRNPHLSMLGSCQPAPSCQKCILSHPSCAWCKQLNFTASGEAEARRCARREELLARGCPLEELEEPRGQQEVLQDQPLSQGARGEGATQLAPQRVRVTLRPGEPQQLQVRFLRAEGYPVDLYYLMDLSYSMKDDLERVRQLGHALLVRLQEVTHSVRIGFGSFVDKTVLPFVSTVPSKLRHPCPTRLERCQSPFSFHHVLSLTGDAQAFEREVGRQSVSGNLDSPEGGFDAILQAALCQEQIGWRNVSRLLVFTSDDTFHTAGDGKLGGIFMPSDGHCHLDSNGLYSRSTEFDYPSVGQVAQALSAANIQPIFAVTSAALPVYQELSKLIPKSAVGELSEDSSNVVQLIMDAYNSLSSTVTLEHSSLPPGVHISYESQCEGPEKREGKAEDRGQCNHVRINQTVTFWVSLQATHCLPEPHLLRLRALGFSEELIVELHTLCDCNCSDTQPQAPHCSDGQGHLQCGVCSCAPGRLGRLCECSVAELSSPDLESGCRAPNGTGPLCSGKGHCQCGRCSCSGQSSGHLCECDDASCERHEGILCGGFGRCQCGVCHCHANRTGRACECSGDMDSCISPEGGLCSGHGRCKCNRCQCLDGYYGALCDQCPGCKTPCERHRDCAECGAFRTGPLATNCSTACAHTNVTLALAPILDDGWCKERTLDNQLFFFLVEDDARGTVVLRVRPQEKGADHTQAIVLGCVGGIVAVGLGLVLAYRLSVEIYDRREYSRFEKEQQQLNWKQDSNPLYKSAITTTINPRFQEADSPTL
Experiment: flow cytometry competition on CD103+CD8+ T cells; pre-incubation with unlabeled 01A; table n=2
Quick reminder: number only, in %, skip the unit.

Inquiry: % binding of the fluorescently labeled mAb (IgG pre-incubation = 100) lookup needed for hCD103.01A (antibody, V domains shown, Also tested labelled with AF647, conjugated with Df and labelled with 89Zr; these are written under this molecule; also called clone 01A; hCD103.01 mAb) VH: EVQLQESGPSLVKPSQTLSLTCSVTGDSITSGYWNWIRKFPGNKLEYMGYITYSGSTYYNPSLKSRISITRDTSKNQYYLQLNSVTTEDTATYYCTRHYYGSDAMDYWGQGTSVTVSS VL: DIVMTQSHKFMSTSVGDRVSITCKASQDVSIAVAWYQQRPGQSPKLLIYSASYRYTGVPDRFTGSGSGTDFTFTISSVQAEDLAVYYCQQHYSTPWTFGGGTKLEIK , thanks.
Reply text: 2.2

Inquiry: % binding of the fluorescently labeled mAb (IgG pre-incubation = 100) lookup needed for hCD103.07A (antibody, mouse IgG1, V domains shown, also called clone 07A) VH: EVQLQESGPSLVKPSQTLSLTCSVTGDSITSGYWNWIRKFPGNKLEYMGYITYSGSTYYNPSLKSRISITRDTSKNQYYLQLNSVTTEDTATYYCARNYYGSSSMDYWGQGTSVTVSS VL: DIVMTQSQKFMSTSVADRVSVTCKASQNVGSDVAWYQQKPGQSPKSLIYSASYRYSGVPDRFTGSGSGTDFTLTISNVQSEDLAEYFCQQYNSYPSTFGGGTKLEIK , thanks.
Reply text: 0.7

Inquiry: % binding of the fluorescently labeled mAb (IgG pre-incubation = 100) lookup needed for hCD103.06A (antibody, mouse IgG1, V domains shown, also called clone 06A; hCD103.06 mAb) VH: QVQLQQPGSELVRPGASVKLSCKASGYTFTSYWMHWVKQRHGQGLEWIGNIYPGSGSTNYDEKFKSKGTLTVDTSSSTAYMHLSSLTSEDSAVYYCTRGVYDNPYYFDYWGQGTTLTVSS VL: DIQMTQSSSNLSVSLGGRVTITCKASDHINNWLAWYQQKPGNAPRVLISGATSLETGVPSRFSGSGSGKDYTLSITSLQTEDVATYYCQQYWSIPLTFGAGTKLELK , thanks.
Reply text: 99.1

Inquiry: % binding of the fluorescently labeled mAb (IgG pre-incubation = 100) lookup needed for hCD103.05A (antibody, mouse IgG1, V domains shown, Also tested labelled with AF647, conjugated with Df and labelled with 89Zr; these are written under this molecule; also called clone 05A; hCD103.05 mAb) VH: EVQLQQSGPELEKPGASAKISCKASGYSFTGYNMNWVKQSNGKSLEWIGNIDPYYGGTSYNQKFKGKATLTVDKSSSTAYMQLKSLTSEDSAVYYCARSFYGYDAGSPYNYAMDYWGQGTPVTVSP VL: DIVMTQSHKFMSTSVGDRVSITCKASQDVGTFVAWYQQKPGQSPKLLIYWASTRHTGVPDRFTGSGSGTDFTLTISNVQSEDLADYFCHQYSSYPYTFGGGTQLEIK , thanks.
Reply text: 2.2
